Tested on: SF-295
Test: NCI tumour cell line growth inhibition, 48 h
The source made the active and inactive calls. No stated cut-off is given here; in the data, active = GI50 up to about 1.1 µM and inactive = higher.
// allowed return values: active, inactive

Take a look at these entries with their results.
Molecule: O=P1(c2ccccc2)C2=CCC=CC2C(c2ccccc2)N1Cc1ccccc1 (configuration not stated)
Group label: inactive
//
Molecule: Cc1c(C(=O)C/C(=N/NC(=O)CC#N)C(N)=O)[n+]([O-])c2ccccc2[n+]1[O-]
Group label: inactive
//
Molecule: COc1cccc(NC(=O)CC(=O)N2N=C(N(CCC#N)c3ccccc3C)CC2c2ccccc2)c1 (configuration not stated)
Group label: inactive

# lookup: test call for C/C(=N/NC(=S)N1CCN(C(=S)N/N=C(/C)c2ccccn2)CC1)c1ccccn1
inactive

Would you kindly repeat that for Cc1ccc(C2C(C(=O)C(C)(C)C)N2S(=O)(=O)c2ccc(C)cc2)cc1 (configuration not stated) ?
inactive

---

System: MDA-MB-435
Experiment: NCI tumour cell line growth inhibition, 48 h
Activity calls are given as the source filed them. Cut-off read from the data, not from the text of the source: active = GI50 up to about 1.1 µM and inactive = higher.
Measured attribute: GI50

Would you please look over these solved cases?
Compound: COc1ccc(OC)c(C2CCc3c(cnc4nc(N)nc(N)c34)C2)c1 (centres undefined)
GI50: 2.56 µM (inactive)

Compound: Oc1c(C(Nc2ccccn2)c2ccccc2)ccc2cccnc12 (centres undefined)
GI50: 5.73 µM (inactive)

Compound: COc1ccc(CNC(=O)NCn2cc(-c3ccccc3)nn2)cc1
GI50: > 100 µM (inactive)

# ---- query compound ----
Provide value of GI50 for this record tested with MDA-MB-435: O=C1C=C(O)C(=O)c2c(O)ccc(O)c21
> 100 µM (inactive)

---

System: HL-60
Assay: NCI tumour cell line growth inhibition, 48 h
Activity calls are given as the source filed them. No stated cut-off is given here; in the data, active = GI50 up to about 1.1 µM and inactive = higher.
// allowed return values: YES for active, NO for inactive

Take a look at these entries with their results.
Compound: Cc1cn2c(/C=C3/C(=O)Nc4cccc(Cl)c43)c(Cl)nc2s1
Group label: NO
--
Compound: C=C1CCc2ccccc2C1=O
Group label: NO
--
Compound: C=CCOCn1cc(F)c(=O)[nH]c1=O
Group label: NO
--
Compound: CC(C)CCCC(C)[C@H]1CCC2[C@@H]3CCC4Nc5nocc5C[C@]4(C)C3CC[C@@]21C (stereo not given in full)
Group label: NO
--
Compound: CC1(c2nc3ccccc3[nH]2)CCC(C(=O)O)C(C)(C)O1 (stereo not given)
Group label: NO

# lookup: test call for Oc1ccc([C@H]2c3c(O)cc(O)cc3C3c4c(cc(O)cc4[C@@H]2[C@H]2c4cc(O)cc5c4C(c4cc(O)cc(O)c4[C@@H]2c2ccc(O)cc2)[C@@H](c2ccc(O)cc2)O5)O[C@@H]3c2ccc(O)cc2)cc1 (stereo not given in full)
NO

Would you kindly repeat that for O=C(O)CC[P+](c1ccccc1)(c1ccccc1)c1ccccc1 ?
NO

Would you kindly repeat that for O=C(OCc1c(-c2ccccc2)nn(-c2ccccc2)c1COC(=O)Oc1ccccc1)Oc1ccccc1 ?
NO

Would you kindly repeat that for c1ccc2c(c1)ccc1ncccc12 ?
NO

Would you kindly repeat that for Nc1cc(N2CCCC2)nc(=O)n1-c1ccccc1 ?
NO

Would you kindly repeat that for Cc1ccc(C(C)(C)C[P+](C)(c2ccccc2)c2ccccc2)cc1 ?
NO

Would you kindly repeat that for Cc1cc2c(cc1Cl)SC(c1ccccc1)C(=O)NS2(=O)=O (stereo not given) ?
NO

---

In this section we review reported GI50 values for a set of compounds.
Tested on: EKVX
Test: NCI tumour cell line growth inhibition, 48 h
Active and inactive are the calls of the source. No stated cut-off is given here; in the data, active = GI50 up to about 1.1 µM and inactive = higher.

Would you please look over these solved cases?
Compound: CC(C)CCCC(C)[C@H]1CCC2[C@@H]3CCC4Nc5nocc5C[C@]4(C)C3CC[C@@]21C (stereo not given in full)
GI50: 16.1 µM (inactive)
//
Compound: CN(C)c1nc2nonc2nc1Nc1ccccc1
GI50: > 100 µM (inactive)
//
Compound: COc1ccc(NC(S)=Nc2cccc(C)n2)cc1
GI50: > 100 µM (inactive)
//
Compound: CCOC(=O)[C@@H]1ON2O[C@H](OC3CCCCC3c3ccccc3)C[C@H]3OC(=O)[C@@H]1C32 (stereo not given in full)
GI50: > 100 µM (inactive)
//
Compound: CCCCCC(O)C1C(=O)OC(C)C(O)/C=C/C=C/C=C/C=C\C=C(\C)C(O)CC(O)CC(O)CC(O)CC(O)CC(O)CC1O (stereo not given)
GI50: > 50 µM (inactive)
//
Compound: O=C1CSC(c2ccc(Cl)cc2)N1c1ccc(Oc2ccc(Cl)cc2)c(Cl)c1 (stereo not given)
GI50: 13.7 µM (inactive)
//
Compound: COC(=O)C1(C)NCCc2c1[nH]c1ccccc21 (stereo not given)
GI50: > 100 µM (inactive)
//
Compound: CC(C)NC(=O)OCc1c(COC(=O)NC(C)C)c(-c2cc[n+](COC(=O)C3CC3)cc2)n2c1CCC2
GI50: > 100 µM (inactive)

May I ask what GI50 has been recorded for Oc1c(C(Nc2ccccn2)c2ccccc2)ccc2cccnc12 (stereo not given) ?
3.01 µM (inactive)

Would you kindly repeat that for N#Cc1c(NC(=S)NC(=O)c2ccccc2)nc2c(c1-c1ccccc1)CCC2 ?
24.5 µM (inactive)

---

Test system: SK-MEL-2
Assay: NCI tumour cell line growth inhibition, 48 h
Activity calls are given as the source filed them. Rule as the data show it: active = GI50 up to about 1.1 µM and inactive = higher.
Measured attribute: GI50

Would you please look over these solved cases?
Molecule: Cc1[nH]c2ccccc2c1-c1cc(-c2cc(-c3c(C)[nH]c4ccccc34)on2)no1
GI50: > 100 µM (inactive)
//
Molecule: O=c1c2c(nc3[nH]ccn13)CCC2
GI50: > 10 µM (inactive)
//
Molecule: c1ccc2cc3[s+]snc3cc2c1
GI50: > 100 µM (inactive)
//
Molecule: NC(=O)C(=O)Cc1nc2ccccc2s1
GI50: > 100 µM (inactive)
//
Molecule: CN1C(=O)c2ccccc2OC12C=Cc1c(ccc3ccccc13)O2 (stereo unspecified)
GI50: 3.34 µM (inactive)

# ---- query molecule ----
May I ask what GI50 has been recorded for N#C/N=C(/N)c1sc2nc3c(c(-c4ccc(Br)cc4)c2c1N)CCCC3 ?
13.2 µM (inactive)

---

Test system: NCI-H460
Test: NCI tumour cell line growth inhibition, 48 h
Active and inactive are the calls of the source. Rule as the data show it: active = GI50 up to about 1.1 µM and inactive = higher.
Measured attribute: GI50

Compound: COC1OC(CO)C(O)C(NC(=O)N(C)N=O)C1O (stereo not drawn)
Endpoint value: > 100 µM (inactive)

May I ask what GI50 has been recorded for COC(=O)c1cc(C)ccc1/C=C1\Cc2cc(C)c(C)cc2C1=O ?
> 100 µM (inactive)

Would you kindly repeat that for CC(=O)Nc1ccc2[nH]c(C(=O)N3CC(CCl)c4c3cc([N+](=O)[O-])c3ccccc43)cc2c1 (stereo not drawn) ?
12.9 µM (inactive)

---

System: SK-OV-3
Assay: NCI tumour cell line growth inhibition, 48 h
The source made the active and inactive calls. Rule as the data show it: active = GI50 up to about 1.1 µM and inactive = higher.
In this section we review reported GI50 values for a set of molecules.

Molecule: Nc1cc(S(=O)(=O)O)cc2ccc(S(=O)(=O)O)cc12
GI50: > 100 µM (inactive)

Molecule: Cc1cc(N(CCC#N)CCC#N)ccc1/C=C/C(=O)Nc1ccccc1Cl
GI50: > 100 µM (inactive)

# ---- query molecule ----
May I ask what GI50 has been recorded for Cc1ccc(OCC2OC(n3cnc4nc(N)nc(Cl)c43)CC2Oc2ccc(C)cc2)cc1 (stereo not drawn) ?
33.9 µM (inactive)

---

System: Hs-578T
Assay: NCI tumour cell line growth inhibition, 48 h
Calls of active or inactive are those of the source. Rule as the data show it: active = GI50 up to about 1.1 µM and inactive = higher.
In this section we review reported GI50 values for a set of compounds.

Compound: C/C(=C\CO)CC[C@@H]1[C@@]2(C)CCCC(C)(C)[C@@H]2CC[C@@]1(C)O
GI50: 24 µM (inactive)
//
Compound: NC(=O)C1CCCN1C(=O)C(Cc1c[nH]cn1)NC(=O)C1CCCC1 (stereo unspecified)
GI50: > 100 µM (inactive)
//
Compound: CCOC(=O)NC
GI50: > 100 µM (inactive)
//
Compound: CC1(C)C[C@H]2C3=CC[C@@H]4[C@@]5(C)CC[C@H](O)C(C)(C)[C@@H]5CC[C@@]4(C)[C@]3(C)C[C@@H](O)[C@@]23C[C@@H]1OC3=O
GI50: > 100 µM (inactive)
//
Compound: CCOC(=O)c1cc2c3c(cc(OC)c2[nH]1)N(C(=O)OCC)CC3
GI50: > 100 µM (inactive)

May I ask what GI50 has been recorded for CC1=NN(c2nc(N)nc(C(C#N)C(=O)c3cc4c(cc3Cl)Sc3nccn3S4(=O)=O)n2)C(C)(C)C1 (stereo unspecified) ?
32.2 µM (inactive)

Would you kindly repeat that for N#Cc1c(NC(=S)NC(=O)c2ccccc2)nc2c(c1-c1ccccc1)CCC2 ?
39.8 µM (inactive)

Would you kindly repeat that for CN(CCC#N)c1ccc(/C=C2\SC(=S)NC2=O)cc1 ?
33.3 µM (inactive)

Would you kindly repeat that for COc1ccc(-c2cc3c(nn2)-c2ccccc2C3=O)cc1 ?
> 10 µM (inactive)

Would you kindly repeat that for CC(CO)(CO)Nc1ncnc2ccccc12 ?
> 100 µM (inactive)

Would you kindly repeat that for CC(=O)OC1(C)C(=O)OC/C2=C/CN(C)CCC(OC(=O)C(O)(C(C)Cl)CC1C)C2=O.c1ccccc1 (stereo unspecified) ?
> 100 µM (inactive)

Reference source for all entries: ChEMBL document CHEMBL1201862
